# credit: paper PMC9827882

Subject of test: Bcl‐xL (Homo sapiens, UniProt Q07817, DEL45-84)
Construct: The protein Bcl‐xL (amino acids 1‐209, Δ45–84, kindly provided by Prof. Ho Sup Yoon); gift of Prof; Ho Sup Yoon, Nanyang Technological University, Singapore
Sequence (Q07817 with tags, fused parts or gaps DEL45-84): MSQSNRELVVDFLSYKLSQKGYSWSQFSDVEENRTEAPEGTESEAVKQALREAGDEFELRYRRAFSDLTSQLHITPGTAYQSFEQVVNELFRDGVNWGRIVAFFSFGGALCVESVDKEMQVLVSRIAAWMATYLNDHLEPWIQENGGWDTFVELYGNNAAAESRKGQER
Protocol notes: Competitive fluorescence polarization (FP) binding assay: Bcl‐xL and fluorescein‐labeled Bak BH3‐derived peptide
Condition set: Bcl‐xL 37 nM, Bak BH3 peptide 4 nM, triplicate; read-out: IC50 against Bcl‐xL in FP assay
Procedure: The abilities of triazoles 11 a/c to interfere with binding between Bcl‐xL and a fluorescein‐labeled peptide derived from the pro‐apoptotic Bcl‐2 protein Bak was analyzed in a competitive binding assay based on fluorescence polarization (FP).[9, 20] Fluorescence polarization assays: Assays were performed essentially as described previously.[20, 30] […]
Recorded endpoint: IC50 (µM)

Molecule smiles	IC50 (µM)
CN(C)CC[C@H](CSc1ccccc1)Nc1ccc(S(=O)(=O)NC(=O)Cn2nnc3c2CCCN(C(=O)OCC2=C(c4ccc(Cl)cc4)CCNC2)CCC3)cc1[N+](=O)[O-]	2.42

[I] CN(C)CC[C@H](CSc1ccccc1)Nc1ccc(S(=O)(=O)NC(=O)Cn2nnc3c2CCCN(C(=O)OCc2ccccc2-c2ccc(Cl)cc2)CCC3)cc1[N+](=O)[O-]
[II] CN(C)CC[C@H](CSc1ccccc1)Nc1ccc(S(=O)(=O)NC(=O)Cn2nnc3c2CCCN(C(=O)c2ccccc2-c2ccc(Cl)cc2)CCC3)cc1[N+](=O)[O-]
// pick larger IC50 from pair: I vs II When you have decided, please share the label of that item.
II
